assaySystem: human adenosine A1R (Homo sapiens, UniProt P30542)
Construct: expressed in transfected cells; host or cells: CHO cells
Sequence (P30542 whole entry): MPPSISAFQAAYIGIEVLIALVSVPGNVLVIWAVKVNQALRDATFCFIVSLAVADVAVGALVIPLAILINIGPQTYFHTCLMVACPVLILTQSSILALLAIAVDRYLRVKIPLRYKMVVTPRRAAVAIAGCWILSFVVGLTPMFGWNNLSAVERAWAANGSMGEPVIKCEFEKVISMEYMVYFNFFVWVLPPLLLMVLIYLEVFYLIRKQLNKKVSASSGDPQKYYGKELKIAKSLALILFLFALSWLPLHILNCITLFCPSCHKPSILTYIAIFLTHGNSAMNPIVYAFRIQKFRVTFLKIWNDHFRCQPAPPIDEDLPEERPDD
assayNotes: Radioligand binding at human adenosine A1 receptor vs. [3H]CCPA
appliedConditions: 1 µM; CHO cells; read-out: A1R vs. [³H]CCPA % Inhibition ± SEM at 1 µM
Form field: inhibition at 1 µM (one value per entry).
experimentalEndpoint: inhibition at 1 µM

compoundstring=C#CCn1c(=O)c2c(nc(NCc3ccc(OC)c(OC)c3)n2C)n(C)c1=O measured=-2%
compoundstring=CCCn1c(=O)c2c(nc(NCc3ccccc3F)n2C)n(C)c1=O measured=32%
compoundstring=C#CCn1c(=O)c2c(nc(NCc3ccccc3Br)n2C)n(C)c1=O measured=44%
compoundstring=Cn1c(NCc2ccccc2Cl)nc2c1c(=O)n(Cc1ccc(Cl)c(Cl)c1)c(=O)n2C measured=10%
compoundstring=CCCCn1c(=O)c2c(nc(NCc3ccccc3Cl)n2C)n(C)c1=O measured=21%
compoundstring=CCCn1c(=O)c2c(nc(NCc3c(F)cccc3Cl)n2C)n(C)c1=O measured=29%
compoundstring=CCCn1c(=O)c2c(nc(NCc3ccccc3Br)n2C)n(C)c1=O measured=30%
compoundstring=CCCCCn1c(=O)c2c(nc(NCc3ccccc3Cl)n2C)n(C)c1=O measured=35%
compoundstring=CCCCCCn1c(=O)c2c(nc(NCc3ccccc3Cl)n2C)n(C)c1=O measured=17%
compoundstring=Cn1c(NCc2ccccc2Cl)nc2c1c(=O)n(Cc1ccc(Cl)cc1)c(=O)n2C measured=12%
compoundstring=CCCn1c(=O)c2c(nc(NCc3ccc(OC)c(OC)c3)n2C)n(C)c1=O measured=7%
compoundstring=CCCn1c(=O)c2c(nc(NCc3ccccc3Cl)n2C)n(C)c1=O measured=26%
compoundstring=CCCn1c(=O)c2c(nc(NCc3cccc(Cl)c3)n2C)n(C)c1=O measured=40%
compoundstring=CCCn1c(=O)c2c(nc(NCc3cccc(OC)c3)n2C)n(C)c1=O measured=17%
compoundstring=Cn1c(NCc2ccccc2Cl)nc2c1c(=O)n(Cc1ccccc1)c(=O)n2C measured=23%
